Origin of the recorded values: patent US20250152746A1

Tested on: PCSK9 gene
assay: PCSK9 gRNA/SpCas9 editing in primary cynomolgus hepatocytes (Tables 2, 22)
Format: cell-based, cynomolgus monkey
test.conditions: SpCas9 mRNA MS002, 625 ng/test article/mL, rep2
Description: In set of experiments, PCSK9 gRNAs were co-transfected with an equivalent amount (1:1 ratio by weight) of in vitro transcribed commercially available SpCas9 mRNA MS002 purchased from TriLink Biotechnologies into primary human hepatocytes at 2500, 500, or 100 ng/RNA/mL and processed as described in detailed methods. Extracted genomic DNA was analyzed for gene editing at the target site with next-generation sequencing of PCR amplicons generated around the target sites. […]
In the oligonucleotide strings, read from the 5' end, every base follows the letter of its sugar. An asterisk marks phosphorothioate; unmarked linkages are phosphodiester. Other units and linkages are bracketed, terminal groups are in braces. A string of capitals states the bases alone. m = 2'-O-methyl; r = 2'-OH (RNA)
Property: Cynomolgus Primary Hepatocytes-% Editing; scope: individual molecules
assay.metric: Cynomolgus Primary Hepatocytes-% Editing (%)

>>> readout_number("GA395 (nucleic acid) guide: mU*mC*mA*rGrCrUrCrCrArGrGrCrGrGrUrCrCrUrGrGmGrUrUrUrUrArGmAmGmCmUmArGmAmAmAmUmAmGmCmAmArGrUrUmArAmArAmUrAmAmGmGmCmUmArGrUmCmCrGrUrUrAmUmCrArAmCmUmUrGmAmAmAmAmAmGmUmGrGmCmAmCmCmGmAmGmUmCmGmGmUmGmCmU*mU*mU*mUmUmUmU")
34.57
>>> readout_number("GA403 (nucleic acid) guide: mU*mC*mA*rGrCrUrCrCrArGrGrCrGrGrUrCrCrUrGrGmGrUrUrUrUrArGmAmGmCmUmArGmAmAmAmUmAmGmCmAmArGrUrU*mArAmArAmUrAmAmGmGmCmUmArGrUmCmCrGrUrUrAmUmCrArAmCmUmUrGmAmAmAmAmAmGmUmGrGmCmAmCmCmGmAmGmUmCmGmGmUmGmCmU*mU*mU*mUmUrUmU")
35.58
>>> readout_number("GA406 (nucleic acid, listed as RNA; modified_base 1: mod_base = OTHER; note = 2'-O-Methyl-uridine phosphorothioate; modified_base 2: mod_base = OTHER; note = 2'-O-Methyl-cytidine phosphorothioate; modified_base 3: mod_base = OTHER; note = 2'-O-Methyl-adenosine phosphorothioate;) guide: TCAGCTCCAGGCGGTCCTGGGTTTTAGAGCTAGAAATAGCAAGTTAAAATAAGGCTAGTCCGTTATCAACTTGAAAAAGTGGCACCGAGTCGGTGCTTTTTTT")
40.31
